biological target: Syk (Homo sapiens)
observable: pIC50
Numbers only, as −log10 of the molar value.

Query: Report pIC50, nothing else, for this compound: COc1cc(Nc2ncc(F)c(NC(=O)c3cc(O)c(O)c(O)c3)n2)cc(OC)c1OC
Reply: 6.24
